- System: zebrafish embryos
- protocol summary: Zebrafish toxicity: mortality rate
- Assay type: in vivo, zebrafish (Danio rerio)
- condition set: 2.5 μM; zebrafish
metric name: Mortality rates

// worked examples, Mortality rates included
- compound: "CC(C)=CCC[C@]1(C)C=Cc2c(O)c3c(c(CC=C(C)C)c2O1)O[C@]12C(=C[C@@H]4C[C@H]1C(C)(C)O[C@@]2(C/C=C(/C)C(=O)O)C4=O)C3=O"
  Mortality rates: "73.3%"
- compound: "CC(C)=CCCC1(C)C=Cc2c(O)c3c(c(CC=C(C)C)c2O1)OC12C(=CC4CC1C(C)(C)OC2(C/C=C(/C)C(=O)Nc1nccs1)C4=O)C3=O (centres unmarked) [Compound 32, Thiazol-2-gambogamide]"
  Mortality rates: "6.7 ± 5.77 %"
- compound: "CC(=O)Nc1ccc(OC(=O)/C(C)=C\\CC23OC(C)(C)C4CC(C=C5C(=O)c6c(O)c7c(c(CC=C(C)C)c6OC542)OC(C)(CCC=C(C)C)C=C7)C3=O)cc1 (centres unmarked) [Compound 4, 4-Acetamidephenyl gambogate]"
  Mortality rates: "6.7 ± 5.77 %"
- compound: "CC(=O)Nc1ccc(NC(=O)/C(C)=C\\CC23OC(C)(C)C4CC(C=C5C(=O)c6c(O)c7c(c(CC=C(C)C)c6OC542)OC(C)(CCC=C(C)C)C=C7)C3=O)cc1 (centres unmarked) [Compound 35, N-(4-acetamidophenyl) gambogamide]"
  Mortality rates: "10 ± 0.00 %"

Now take the following compound into account.
-- ask // returns reported Mortality rates for input CC(=O)Nc1ccc(NC(=O)/C(C)=C\CC23OC(C)(C)C4CC(C=C5C(=O)c6c(O)c7c(c(CC8OC8(C)C)c6OC542)OC(C)(CCC2OC2(C)C)C=C7)C3=O)cc1 (centres unmarked)
-- reply 3.3 ± 5.77 %

* * *

IC50 by entry:
- System: HUVEC
- protocol summary: MTT assay, cell proliferation
- Format: cell-based, Human
- condition set: Homo sapiens, 24 h, read-out: IC50, inhibition of cell proliferation

-- ask // returns reported IC50 for input CC(C)=CCC[C@]1(C)C=Cc2c(O)c3c(c(CC=C(C)C)c2O1)O[C@]12C(=C[C@@H]4C[C@H]1C(C)(C)O[C@@]2(C/C=C(/C)C(=O)O)C4=O)C3=O
-- reply 0.27 µM

-- ask Try this compound next: CC(C)=CCCC1(C)C=Cc2c(O)c3c(c(CC=C(C)C)c2O1)OC12C(=CC4CC1C(C)(C)OC2(C/C=C(/C)C(=O)Oc1ccc(Br)c(F)c1F)C4=O)C3=O (stereo not shown) [Compound 24, 4-Bromo-2,3-difluorophenyl gambogate]
-- reply > 80 µM

-- ask Try this compound next: CC(C)=CCCC1(C)C=Cc2c(O)c3c(c(CC=C(C)C)c2O1)OC12C(=CC4CC1C(C)(C)OC2(C/C=C(/C)C(=O)Oc1cccc([N+](=O)[O-])c1)C4=O)C3=O (stereo not shown) [Compound 8, 3-Nitrophenyl gambogate]
-- reply 77.5 µM

* * *

- System: HUVEC
- protocol summary: MTT assay, cell proliferation
- Format: cell-based, Human
- condition set: Homo sapiens, 24 h, read-out: IC50, inhibition of cell proliferation
pIC50 by entry:
pIC50 field: float, defined as -log10 of concentration (mol/L).

// worked examples, pIC50 included
- compound: "CC(C)=CCCC1(C)C=Cc2c(O)c3c(c(CC=C(C)C)c2O1)OC12C(=CC4CC1C(C)(C)OC2(C/C=C(/C)C(=O)Sc1nccs1)C4=O)C3=O (stereo not shown) [Compound 29, S-thiazol-2-yl gambogthioate]"
  assay target: "HUVEC"
  pIC50: 5.18
- compound: "CC(C)=CCCC1(C)C=Cc2c(O)c3c(c(CC=C(C)C)c2O1)OC12C(=CC4CC1C(C)(C)OC2(C/C=C(/C)C(=O)Oc1cccc(C#N)c1)C4=O)C3=O (stereo not shown) [Compound 12, 3-Cyanophenyl gambogate]"
  assay target: "HUVEC"
  pIC50: 5.12

Now take the following compound into account.
-- ask // returns reported pIC50 for input CC(C)=CCCC1(C)C=Cc2c(O)c3c(c(CC=C(C)C)c2O1)OC12C(=CC4CC1C(C)(C)OC2(C/C=C(/C)C(=O)Nc1nc2ccccc2s1)C4=O)C3=O (stereo not shown) [Compound 34, N-(benzo[d]thiazol-2-yl) gambogamide]
-- reply 5.25

Reference source for all entries: paper PMC6268492
